Provide the recorded pEC50 for the entries that follow.
tested on: SARS-CoV-2; experiment: microbe, parasite or virus in culture; type: cell-based; details: Severe acute respiratory syndrome coronavirus 2, VeroE6/TMPRSS2, 72 h, 50% SARS-CoV-2 infected cell death inhibitory concentration; VeroE6/TMPRSS2 cells, 3 days culture, CellTiter-Glo 2.0
By convention, pEC50 is the negative base-10 log of a molar concentration.

# input Endpoint output: pEC50 of Cc1cc(F)c(C#N)cc1Cn1c(Nc2ccc3nn(C)cc3c2)nc(=O)n(-c2cncc(Cl)c2)c1=O . Value?
# output 6.72

# input Endpoint output: pEC50 of Cn1cc2cc(Nc3nc(=O)n(-c4cnc5ccccn45)c(=O)n3Cc3cc(F)c(F)c(Cl)c3)c(Cl)cc2n1 . Value?
# output 5.06

# input Endpoint output: pEC50 of Cc1cncc(-n2c(=O)nc(N(C)c3cc4cn(C)nc4cc3Cl)n(Cc3cc(F)c(F)c(F)c3)c2=O)c1 . Value?
# output 4.68
